- target_or_test_system: Glucose transporter (Leishmania mexicana)
- procedure_details: ST_JUDE_LEISH: Cytotoxicity at 2uM final concentration against transgenic Leishmania Mexicana promastigotes LmGT2 that are glucose transport deficient and complemented with the L. Mexicana glucose transporter 2. Activity is measured by DNA content using SYBR green in vitro
- Format: functional
measurement_kind: inhibition (%)
Give the value, in units of %, as a plain number.

COc1ccc2nccc(NCC3(O)CCN(CC(O)c4ccc5c(c4)NC(=O)CS5)CC3)c2n1 (stereo unspecified); 2.58
Cc1cccc2nc(-c3ccc(-c4ccc(NC(=O)NCc5cccc(F)c5)cc4)s3)[nH]c12; 5.43
Cc1[nH]c(C)c(-c2ccc(/C=C/c3ccccn3)cc2)c(=O)c1Cl; 5.12
CC(C)Sc1nc2c(c(=O)n1CCc1ccccc1)C1(CCCC1)Cc1ccccc1-2; 2.88
CCc1ccc(-c2nc3cc(NC(=O)c4ccc([N+](=O)[O-])o4)ccc3o2)cc1; 0.78

In the following, a different compound is considered.
input: Lab note: need inhibition with Glucose transporter (Leishmania mexicana) for entry Cc1ccc2c(N/N=C/c3cccc([N+](=O)[O-])c3)cc(C)nc2c1 , please look it up.
output: 3.94

----------
- target_or_test_system: Hexose transporter 1 (Plasmodium falciparum)
- procedure_details: ST_JUDE_LEISH: Cytotoxicity at 2uM final concentration against transgenic Leishmania Mexicana promastigotes LmPfHT that are glucose transport deficient and complemented with the Plasmodium falciparum hexose transporter. Activity is measured by DNA content using SYBR green in vitro
- Assay type: functional
Recorded inhibition by entry
Dear colleague, please return just the value in %, with no unit written.

CCCC(C)Nc1nc(C)cc(N[C@@H](CC(C)C)C(=O)NCc2cccc(F)c2)n1 (stereo partly drawn); 5.69

input: # input compound: Cc1cc(NC(=O)NCCN2CCC(NS(=O)(=O)c3ccc(Br)cc3)C2)c2ccccc2n1 (stereo not drawn) ; wanted: its inhibition
output: 3.86

input: Form field: reported inhibition of COc1ccc2ncc(F)c(CCN3CCC[C@H](CNCc4ccc5c(n4)NC(=O)CS5)C3)c2n1
output: 5.3

----------
- target_or_test_system: Hexose transporter 1 (Plasmodium falciparum) (UniProt O97467)
- procedure_details: ST_JUDE_LEISH: Cytotoxicity at 2uM final concentration against transgenic Leishmania Mexicana promastigotes LmPfHT that are glucose transport deficient and complemented with the Plasmodium falciparum hexose transporter. Activity is measured by DNA content using SYBR green in vitro
- Format: functional
Measured inhibition accompanies every entry in the list below.
Number in %, nothing else.

COc1cccc(-c2nn(C)c3sc(C(=O)Nc4cccnc4)cc23)c1; -1.97

input: Param readout= inhibition; system= Hexose transporter 1 (Plasmodium falciparum) (UniProt O97467); entry= CCC[C@@H]([C@@H](CC1CCCCC1)C(=O)N[C@H](C(=O)Nc1ccccn1)[C@H](C)CC)N(O)C=O ; returns value.
output: 3.35

input: Reported inhibition for Hexose transporter 1 (Plasmodium falciparum) (UniProt O97467), given Ic1cc(CNC2CCCCC2)ccc1OCc1cccc(COc2ccc(CNC3CCCCC3)cc2I)c1 ?
output: 3.76

input: Short answer please: inhibition, Hexose transporter 1 (Plasmodium falciparum) (UniProt O97467), entry Cc1ccc(S(=O)(=O)n2cc(-c3ccnc(N)c3)c3cc(Br)cnc32)cc1
output: 4.2

input: Given the entry CCOc1ccc(-n2nc3c(Cl)nnc(-c4ccccc4)c3c2-c2ccccc2)cc1 , what inhibition was observed with Hexose transporter 1 (Plasmodium falciparum) (UniProt O97467)?
output: 6.02

input: Request body: readout inhibition, system Hexose transporter 1 (Plasmodium falciparum) (UniProt O97467), query c1ccc(-c2nnc(-c3ccccn3)nc2NC2CCCCC2)cc1 . Return the value.
output: 79.8

----------
- target_or_test_system: Solute carrier family 2, facilitated glucose transporter member 1 (Homo sapiens)
- procedure_details: ST_JUDE_LEISH: Cytotoxicity at 2uM final concentration against transgenic Leishmania Mexicana promastigotes LmGLUT1 that are glucose transport deficient and complemented with the human glucose transporter GLUT1. Activity is measured by DNA content using SYBR green in vitro
- Format: functional
measurement_kind: inhibition
Record the result as number plus unit.

Study these solved cases before continuing.
COc1ccc(C2C(C(=O)Nc3ccccc3)=C(C)Nc3c(C(=O)Nc4ccccc4)cnn32)cc1 (configuration not stated); 2.83%
COc1cc2nc(N3CCN(c4nc(N)c5cc(OC)c(OC)cc5n4)CC3)nc(N)c2cc1OC; 5.24%
Cc1nn(-c2ccc(Cl)cc2)c2[nH]c(CN3CCN(c4cccc(Cl)c4)CC3)cc(=O)c12; 20.2%
Cc1cc(N2CCCC2)nc(Nc2ccc(NC(=O)C(C)C)cc2)n1; 5.62%
O=C(Nc1ccc(-c2nc3ccccc3[nH]2)cc1)c1cnc(Cl)c(Cl)c1; 0.44%

input: Give inhibition (Solute carrier family 2, facilitated glucose transporter member 1 (Homo sapiens)) of the following compound: CCN1CCC(N(Cc2ccc(-c3ccc(C(F)(F)F)cc3)cc2)C(=O)Cn2c(CCc3cccc(F)c3F)cc(=O)c3ccc(OCc4ccccc4)cc32)CC1
output: 3.79%

input: Solute carrier family 2, facilitated glucose transporter member 1 (Homo sapiens) / inhibition / Cc1cc(C(=O)Nc2ccc3c(c2)CCN3C2CCN(Cc3cc(F)cc(F)c3F)C2)no1 (configuration not stated) : value?
output: -0.31%

----------
inhibition listing for selected compounds.
- target_or_test_system: Glucose transporter (Leishmania mexicana) (UniProt O61059)
- procedure_details: ST_JUDE_LEISH: Cytotoxicity at 2uM final concentration against transgenic Leishmania Mexicana promastigotes LmGT2 that are glucose transport deficient and complemented with the L. Mexicana glucose transporter 2. Activity is measured by DNA content using SYBR green in vitro
- Type: functional
Express the result in % but write the number alone.

Known results for compounds:
CC(C)COc1ccc(Cl)cc1Cc1ccc(-c2nc3cc(F)c(F)cc3[nH]2)o1; 1.02
CN(C)CCC1CCCc2ccc(NC(=O)Nc3cccc(Cl)c3Cl)cc21 (stereo not given); 1.03
CCCC(C)NC(=O)c1cnn(-c2ccc(C(C)(C)C)cc2)c1OCc1ccc(Br)cc1 (stereo not given); 5.11
O=C(/C=C/c1c[nH]c2ccccc12)NCCCCCN1CCC(c2c[nH]c3ccccc23)CC1; 1

Pending compound:
input: # query: inhibition of entry CNC(=O)Cc1ccc(C(=O)Nc2cccc(-c3ccc(-c4nc5cccc(C)c5[nH]4)s3)c2)cc1
output: 1.79

----------
- target_or_test_system: Glucose transporter (Leishmania mexicana)
- procedure_details: ST_JUDE_LEISH: Cytotoxicity at 2uM final concentration against transgenic Leishmania Mexicana promastigotes LmGT2 that are glucose transport deficient and complemented with the L. Mexicana glucose transporter 2. Activity is measured by DNA content using SYBR green in vitro
- Type: functional
# reported inhibition; entries follow
The answer is to be given in %; state only the numeric part.

Please review the following examples before continuing.
COc1ccc(-c2ccc(NC(=O)c3cccc(Cl)c3)cc2)cc1CNC(C)C; 1.96
COc1ccc(NC(=O)N2CCc3ccc(OCCN(C(C)C)C(C)C)cc32)cc1C(F)(F)F; 5.73
COc1ccc(CN2CCCN(Cc3cccc(C(=O)Nc4ccc(C)c(F)c4)c3)CC2)cc1; 1.49
O=C(Nc1cccc(-c2cccc(-c3nc4cc(C(F)(F)F)ccc4[nH]3)c2)c1)c1c[nH]cn1; -1.42
Cc1cccc2nc(-c3ccc(-c4ccc(CN5CCN(c6ccc(C#N)cn6)CC5)cc4)s3)[nH]c12; -0.38

input: # get_value(readout='inhibition', item= OC(CNc1ccnc(Nc2ccc(Cl)cc2)n1)c1cccc(C(F)(F)F)c1 (configuration not stated) )
output: 0.49

input: Please report the recorded inhibition for CC(=O)c1c(Cc2ccccc2Cl)c[nH]c1C .
output: -1.32

----------
- target_or_test_system: Solute carrier family 2, facilitated glucose transporter member 1 (Homo sapiens)
- procedure_details: ST_JUDE_LEISH: Cytotoxicity at 2uM final concentration against transgenic Leishmania Mexicana promastigotes LmGLUT1 that are glucose transport deficient and complemented with the human glucose transporter GLUT1. Activity is measured by DNA content using SYBR green in vitro
- Type: functional
measurement_kind: inhibition (%)
# unit: % | format: bare number

Use these answered entries as a reference point.
Cn1cc(C2CCN(CCCCNC(=O)c3ccc(C(=O)Nc4ccc(C#N)cc4)cc3)CC2)c2ccccc21; 9
CCCCCOc1ccc(C(O)C(CCC(CN2CCCCCC2)C(O)c2ccc(OCCCCC)cc2)CN2CCCCCC2)cc1 (stereo not drawn); 3.22
ON=C(c1nc2ccccc2[nH]1)c1nc2ccccc2[nH]1; -0.84
CCc1ccc(NC(=O)N(CCCn2ccnc2)Cc2csc(-c3ccc(CNCc4ccccc4)cc3)n2)cc1; 2.66
CC(CON1C(N)=NC(N)=NC1(C)C)Cc1ccc(Cl)cc1Cl (stereo not drawn); -0.6

input: Which inhibition is reported for this molecule? Cc1[nH]c(C)c(-c2ccc(-c3ccc(OC(F)(F)F)cc3)cc2)c(=O)c1Cl
output: 4.71

input: Would you kindly share the measured inhibition for COc1ccc2ncc(F)c(CCN3CCC(NCc4cnc5c(c4)NC(=O)CS5)CC3)c2c1 ?
output: 1.52

input: Name the reported inhibition value associated with the molecule CC(C)(C)c1cc([N+](=O)[O-])cc(C(=O)Nc2ccccc2C(F)(F)F)c1O
output: 0.47

Value source: ChEMBL document CHEMBL3433997
